ASSAY SYSTEM: T1, Human PD-1 (Swiss-Prot entry Q15116), full length, on cells (human, UniProt Q15116 21-288)
T1 construct: Full length open reading frame of hPD-1 stably expressed on CHO-K1 cells; also endogenous PD-1 on CD3/CD28-stimulated human CD3+ T cells and PD-1 on transfected Jurkat cells; also called hPD-1; hPDCD1
T1 sequence (Q15116 21-288, one chain of several): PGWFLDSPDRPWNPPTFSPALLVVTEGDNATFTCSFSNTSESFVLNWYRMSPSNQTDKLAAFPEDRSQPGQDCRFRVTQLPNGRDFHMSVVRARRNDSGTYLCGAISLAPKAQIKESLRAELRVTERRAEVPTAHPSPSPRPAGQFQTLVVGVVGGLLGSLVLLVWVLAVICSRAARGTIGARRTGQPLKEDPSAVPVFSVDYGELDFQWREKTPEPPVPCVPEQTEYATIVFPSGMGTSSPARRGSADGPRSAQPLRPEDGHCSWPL
ASSAY EXPLANATION: CELISA on CHO-K1.hPDCD1 cells
pEC50: −log10 of the molar value.
Collected pEC50 values appear next to each entry.
OUTCOME MEASURE: pEC50

* hPD1.29H5_T30D_L4 (antibody, V domains shown, Mutant of hPD1.29H5L4 (human IgG4 S241P kappa format of the parent)) VH: EVQLVQSGAEVKKPGASVKVSCKASGYIFDTYYIHWVKQAPGKGLEWIGWIFPGDVSTQYNEKFQDKATITVDKSASTAYMQLSSLRSEDTAVYYCTREAYDYAVYWGQGTLVTVSS VL: DIQMTQAPSSLSASVGDRVTITCKASQNVDTNVAWFQQKPGKAPKSLIFSASYRYSGVPSRFSGSGSGTDFTLTISSLQPEDFATYYCQQYNNYPFTFGGGTKLEIK | 9.52
* hPD1.29H5_I28T_T31S_L4 (antibody, V domains shown, Mutant of hPD1.29H5L4 (human IgG4 S241P kappa format of the parent)) VH: EVQLVQSGAEVKKPGASVKVSCKASGYTFTSYYIHWVKQAPGKGLEWIGWIFPGDVSTQYNEKFQDKATITVDKSASTAYMQLSSLRSEDTAVYYCTREAYDYAVYWGQGTLVTVSS VL: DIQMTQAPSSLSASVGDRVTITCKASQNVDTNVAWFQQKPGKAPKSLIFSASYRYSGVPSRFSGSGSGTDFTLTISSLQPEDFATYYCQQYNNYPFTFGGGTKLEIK | 9.52
* hPD1.29H5_A9P_K12V_L4 (antibody, V domains shown, Mutant of hPD1.29H5L4 (human IgG4 S241P kappa format of the parent)) VH: EVQLVQSGPEVVKPGASVKVSCKASGYIFTTYYIHWVKQAPGKGLEWIGWIFPGDVSTQYNEKFQDKATITVDKSASTAYMQLSSLRSEDTAVYYCTREAYDYAVYWGQGTLVTVSS VL: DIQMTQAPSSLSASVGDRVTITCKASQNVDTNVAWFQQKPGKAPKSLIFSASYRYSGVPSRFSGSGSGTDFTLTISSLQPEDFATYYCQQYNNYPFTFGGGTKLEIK | 9.40
* hPD1.29H5_I28D_T30D_L4 (antibody, V domains shown, Mutant of hPD1.29H5L4 (human IgG4 S241P kappa format of the parent)) VH: EVQLVQSGAEVKKPGASVKVSCKASGYDFDTYYIHWVKQAPGKGLEWIGWIFPGDVSTQYNEKFQDKATITVDKSASTAYMQLSSLRSEDTAVYYCTREAYDYAVYWGQGTLVTVSS VL: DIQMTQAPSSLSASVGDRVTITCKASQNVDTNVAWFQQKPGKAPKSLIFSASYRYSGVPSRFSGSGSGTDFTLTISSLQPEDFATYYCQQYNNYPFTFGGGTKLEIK | 9.40
* hPD1.29H5_I28D_Y32D_L4 (antibody, V domains shown, IgG4 S241P kappa format of the parent) VH: EVQLVQSGAEVKKPGASVKVSCKASGYDFTTDYIHWVKQAPGKGLEWIGWIFPGDVSTQYNEKFQDKATITVDKSASTAYMQLSSLRSEDTAVYYCTREAYDYAVYWGQGTLVTVSS VL: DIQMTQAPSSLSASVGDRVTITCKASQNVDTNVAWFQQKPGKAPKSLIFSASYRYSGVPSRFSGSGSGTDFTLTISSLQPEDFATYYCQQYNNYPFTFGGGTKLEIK | 9.40
